# TGT: Leukotriene B4 receptor 2 (Homo sapiens, UniProt Q9NPC1)
# Sequence (Q9NPC1 whole entry): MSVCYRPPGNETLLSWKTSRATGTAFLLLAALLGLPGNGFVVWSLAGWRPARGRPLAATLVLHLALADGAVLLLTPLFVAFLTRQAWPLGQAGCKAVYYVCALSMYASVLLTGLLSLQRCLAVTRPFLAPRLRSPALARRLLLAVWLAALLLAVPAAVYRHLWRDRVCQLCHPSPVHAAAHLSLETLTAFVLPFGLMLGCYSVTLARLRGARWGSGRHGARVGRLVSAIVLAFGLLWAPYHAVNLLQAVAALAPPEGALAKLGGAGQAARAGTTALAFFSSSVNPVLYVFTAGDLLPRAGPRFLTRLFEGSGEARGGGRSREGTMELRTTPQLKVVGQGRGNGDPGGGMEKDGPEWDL
RECORDED METRIC: Ki (nM)
I only need the number, in nM, no unit after it.

Q: Kindly state the measured Ki obtained for CCCCCCC=CC(=O)C=CC=CC=CC(O)CCCC(=O)O (stereo unspecified) with Leukotriene B4 receptor 2 (Homo sapiens, UniProt Q9NPC1).
Ans: 7.6
